Hi there, I'd appreciate the recorded log10 of MIC for every entry that follows.
Field: value | Transform: log10 | Quantity: MIC | Unit: µg/mL

Proteus vulgaris ATCC 6897 / log10 of MIC / COC12C(COC(N)=O)C3=C(C(=O)C4=C(NCCSC4)C3=O)N1CC1NC12 (stereo not shown) : value?
1.60

Proteus vulgaris ATCC 6897 / log10 of MIC / COCC1=C(OC)C(=O)C2=C(C1=O)N1CC3NC3C1(OC)C2COC(N)=O (stereo not shown) : value?
0.40

Proteus vulgaris ATCC 6897 / log10 of MIC / COCC1=C(N)C(=O)C2=C(C1=O)N1CC3NC3C1(OC)C2COC(N)=O (stereo not shown) : value?
0.11

Proteus vulgaris ATCC 6897 / log10 of MIC / COC(=O)CCSCC1=C(N)C(=O)C2=C(C1=O)N1CC3NC3C1(OC)C2COC(N)=O (stereo not shown) : value?
0.11

Proteus vulgaris ATCC 6897 / log10 of MIC / COC12C(COC(N)=O)C3=C(C(=O)C(CSc4ccccc4)=C(N)C3=O)N1CC1NC12 (stereo not shown) : value?
1.60

Proteus vulgaris ATCC 6897 / log10 of MIC / COC12C(COC(N)=O)C3=C(C(=O)C(CO)=C(N)C3=O)N1CC1NC12 (stereo not shown) [Compound 10, 6-Demethyl-6-hydroxymethylmitomycin C] : value?
0.70

Proteus vulgaris ATCC 6897 / log10 of MIC / COC12C(COC(N)=O)C3=C(C(=O)C(CSCCO)=C(N)C3=O)N1CC1NC12 (stereo not shown) : value?
1.60

Proteus vulgaris ATCC 6897 / log10 of MIC / COC12C(COC(N)=O)C3=C(C(=O)C(CSC(C)C)=C(N)C3=O)N1CC1NC12 (stereo not shown) : value?
1.00

Proteus vulgaris ATCC 6897 / log10 of MIC / CCSCC1=C(N)C(=O)C2=C(C1=O)N1CC3NC3C1(OC)C2COC(N)=O (stereo not shown) : value?
-0.80

Proteus vulgaris ATCC 6897 / log10 of MIC / COC12C(COC(N)=O)C3=C(C(=O)C(CSCc4ccccc4)=C(N)C3=O)N1CC1NC12 (stereo not shown) : value?
1.60

Proteus vulgaris ATCC 6897 / log10 of MIC / COC12C(COC(N)=O)C3=C(C(=O)C(COC(C)C)=C(N)C3=O)N1CC1NC12 (stereo not shown) : value?
1.60

* * *

Hi there, I'd appreciate the recorded LD50 at 336 h for every entry that follows.
# ASSAY_METHOD_TEXT: Determination of LD50 (single administration, 14 days observation)
# EXPERIMENTAL_CONTEXT: mouse, in vivo, ip, ddY mice, intraperitoneal, Behrens Kaerber's method
# Description: LD50 and ED50 were determined by the following methods, respectively. (1) Determination of LD50 Five ddY mice were used for each group, and the test compounds were administered once to the mice intraperitoneally or intravenously. […] LD50 was calculated from the death rate of each group according to the Behrens Kaerber's method.
Quick note: give the figure in mg/kg, leave out the unit.

Tell me the measured LD50 at 336 h of COC12C(COC(N)=O)C3=C(C(=O)C(COCc4ccccc4)=C(N)C3=O)N1CC1NC12 (stereo not shown) , please.
60

Tell me the measured LD50 at 336 h of COCC1=C(N)C(=O)C2=C(C1=O)N1CC3NC3C1(OC)C2COC(N)=O (stereo not shown) , please.
75

Tell me the measured LD50 at 336 h of CCSCC1=C(N)C(=O)C2=C(C1=O)N1CC3NC3C1(OC)C2COC(N)=O (stereo not shown) , please.
30
